This collection of values is drawn from ChEMBL document CHEMBL5579841.

# method-description: Permeability of compound by PAMPA
# Type: ADME
# condition-info: read-out: permeability
Could you label it Fulfilled if measured Papp is 6 ×10⁻⁶ cm/s or higher, and Not fulfilled otherwise?

Below, 5 molecules whose answers are already recorded.
# molecule, group-label
records = [
    ("CCCCC(NC(=O)c1[nH]c2c(c1C)C(=O)CC(C)(C)C2)C(=O)Nc1ccc(CCN2CCS(=O)(=O)CC2)cc1 (racemic)", "Not fulfilled"),
    ("CCCC[C@H](NC(=O)c1[nH]c2c(c1C)C(=O)CC(C)(C)C2)C(=O)NCc1ccc(CN(C)C)cc1", "Fulfilled"),
    ("CCCCC(NC(=O)c1[nH]c2c(c1C)C(=O)CC(C)(C)C2)C(=O)Nc1cccnc1 (racemic)", "Fulfilled"),
    ("CCCCC(NC(=O)c1[nH]c2c(c1C)C(=O)CC(C)(C)C2)C(=O)Nc1ccc(CN2CCCC2)cc1 (racemic)", "Fulfilled"),
    ("CCCCC(NC(=O)c1[nH]c2c(c1C)C(=O)CC(C)(C)C2)C(=O)Nc1ccc(CCN2CCCCC2)cc1 (racemic)", "Fulfilled"),
]

Record CCCC[C@H](NC(=O)c1[nH]c2c(c1C)C(=O)CC(C)(C)C2)C(=O)Nc1ccc(OC2CCN(C)CC2)cc1 ; criterion: Papp no lower than 6 ×10⁻⁶ cm/s. Met?
Fulfilled

Record CCCCC(NC(=O)c1[nH]c2c(c1C)C(=O)CC(C)(C)C2)C(=O)Nc1ccc(OCCN(C)C)nc1 (racemic) ; criterion: Papp no lower than 6 ×10⁻⁶ cm/s. Met?
Not fulfilled
